For each of the compounds below, state its inhibition at 10 µM.
Tested on: Neutrophil
assay details: Anti-inflammatory activity in human neutrophils assessed as inhibition of fMLP/CB-induced superoxide anion production by measuring reduction of ferricytochrome c at 10 uM pretreated for 5 mins followed by fMLP/CB addition measured after 10 mins by spectrophotometric method relative to control
Assay type: functional
Quick reminder: number only, in %, skip the unit.

State the recorded inhibition at 10 µM for this entry: CC1=CC(=O)[C@H]2[C@@H](C1)[C@]13CO[C@@]4([C@H]1O)N1C[C@H]5C[C@H](C)C[C@]1(CC[C@@]4(C)[C@]1(COC(=O)C1)[C@H]3C(=O)[C@@H]2C)O5
15

Try the compound CC1=CC(=O)[C@@H]2[C@@H](C1)C13C=C4N5C[C@H]6C[C@H](C)[C@@H](I)[C@]5(CC[C@@]4(C)[C@]4(COC(=O)C4)[C@H]1[C@@](O)(OC3)[C@@H]2C)O6
24

Try the compound CC1=CC(=O)[C@@H]2[C@@H](C1)[C@]13CO[C@@]4([C@H]1Cl)N1C[C@H]5C[C@H](C)C[C@]1(CC[C@@]4(C)[C@]1(COC(=O)C1)[C@H]3C(=O)[C@@H]2C)O5
23

* * *

For each of the molecules below, state its inhibition at 10 µM.
System: Neutrophil
assay details: Anti-inflammatory activity in human neutrophils assessed as inhibition of fMLP/CB-induced elastase release at 10 uM using MeO-Suc-Ala-Ala-Pro-Val-p-nitroanilide as a substrate pretreated for 5 mins followed by fMLP/CB addition relative to control
Type: functional
Quick reminder: number only, in %, skip the unit.

State the recorded inhibition at 10 µM for this entry: CC1=CC(=O)[C@@H]2[C@@H](C1)[C@]13CO[C@@]4([C@H]1Cl)N1C[C@H]5C[C@H](C)C[C@]1(CC[C@@]4(C)[C@]1(COC(=O)C1)[C@H]3C(=O)[C@@H]2C)O5
25

Try the molecule CC1=CC(=O)[C@@H]2[C@@H](C1)[C@]1(C)C=C3N4C[C@H]5C[C@H](C)C[C@]4(CC[C@@]3(C)[C@]3(COC(=O)C3)[C@H]1C(=O)[C@@H]2C)O5
30

Try the molecule CC1=CC(=O)[C@H]2[C@@H](C1)[C@]13CO[C@@]4(C1=O)N1C[C@H]5C[C@H](C)C[C@]1(CC[C@@]4(C)[C@]1(COC(=O)C1)[C@H]3C(=O)[C@@H]2C)O5
23

Try the molecule CC1=CC(=O)[C@@H]2[C@@H](C1)[C@]13CO[C@@]4(C1=O)N1C[C@H]5C[C@H](C)C[C@]1(CC[C@@]4(C)[C@]1(COC(=O)C1)[C@H]3C(=O)[C@@H]2C)O5
27

Try the molecule CC1=CC(=O)[C@H]2[C@@H](C1)[C@]13CO[C@@]4([C@H]1O)N1C[C@H]5C[C@H](C)C[C@]1(CC[C@@]4(C)[C@]1(COC(=O)C1)[C@H]3C(=O)[C@@H]2C)O5
13

Try the molecule CC1=CC(=O)[C@@H]2[C@@H](C1)C13C=C4N5C[C@H]6C[C@H](C)[C@@H](I)[C@]5(CC[C@@]4(C)[C@]4(COC(=O)C4)[C@H]1[C@@](O)(OC3)[C@@H]2C)O6
43

Try the molecule CC1=CC(=O)[C@@H]2[C@@H](C1)C13C=C4N5C[C@@H]6O[C@@]5(CC[C@@]4(C)[C@]4(COC(=O)C4)[C@H]1[C@@](O)(OC3)[C@@H]2C)C[C@@H](C)[C@@H]6O
25

Try the molecule CC1=CC(=O)[C@@H]2[C@@H](C1)[C@]13CO[C@@]4(C1=O)N1C[C@H]5C[C@H](C)C[C@@]1(O5)[C@@H](O)C[C@@]4(C)[C@]1(COC(=O)C1)[C@H]3C(=O)[C@@H]2C
15

Try the molecule CC1=CC(=O)[C@@H]2[C@@H](C1)C13C=C4N5C[C@H]6C[C@H](C)C[C@]5(CC[C@@]4(C)[C@]4(COC(=O)C4)[C@H]1[C@@](O)(OC3)[C@@H]2C)O6
17

Try the molecule O=c1cc(N2CCOCC2)oc2c(-c3ccccc3)cccc12 [LY-294002]
73
